test_system: Retinoic acid receptor alpha (Homo sapiens) (UniProt P10276)
Sequence (P10276 whole entry, looked up): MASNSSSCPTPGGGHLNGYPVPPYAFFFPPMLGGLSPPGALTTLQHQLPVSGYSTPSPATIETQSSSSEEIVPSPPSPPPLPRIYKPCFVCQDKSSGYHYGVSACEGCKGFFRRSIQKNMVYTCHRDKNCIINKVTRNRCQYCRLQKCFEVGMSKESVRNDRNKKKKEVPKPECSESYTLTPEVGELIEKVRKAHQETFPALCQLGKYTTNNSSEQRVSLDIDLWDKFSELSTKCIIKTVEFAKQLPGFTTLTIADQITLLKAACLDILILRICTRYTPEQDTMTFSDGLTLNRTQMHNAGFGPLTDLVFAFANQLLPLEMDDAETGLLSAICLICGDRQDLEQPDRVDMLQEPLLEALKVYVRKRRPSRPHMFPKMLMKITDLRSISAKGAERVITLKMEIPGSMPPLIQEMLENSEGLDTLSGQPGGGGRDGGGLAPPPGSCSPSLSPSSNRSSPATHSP
method_summary: ATG_DR5_RAR_CIS: Attagene CIS-FACTORIAL HepG2 Assay for human Retinoic Acid Receptor Alpha (RARE), DR5 submotif (AID 2282934)
protocol_conditions: HepG2 Attagene cis-factorial RARE DR5 reporter, mRNA; actives raise or lower the signal
Activity calls are given as the source filed them. Rule for the calls: active = hit-call score of the fitted dose curve at least 0.9, where 1 is the maximum; inactive = score below 0.9.
Bench note: report the call from label 1 for active, label 0 for inactive

Some solved entries appear below for comparison.
[[record]]
molecule = "CCCCCCCCCCCCCCC"
test_system = "Retinoic acid receptor alpha (Homo sapiens) (UniProt P10276)"
assigned_category = "label 0"

[[record]]
molecule = "c1cc2cccc3c4cccc5cccc(c(c1)c23)c54"
test_system = "Retinoic acid receptor alpha (Homo sapiens) (UniProt P10276)"
assigned_category = "label 0"

[[record]]
molecule = "CC(C)(C)C1CCCCC1O (configuration not stated)"
test_system = "Retinoic acid receptor alpha (Homo sapiens) (UniProt P10276)"
assigned_category = "label 0"

[[record]]
molecule = "NNc1nc(-c2ccc([N+](=O)[O-])cc2)cs1"
test_system = "Retinoic acid receptor alpha (Homo sapiens) (UniProt P10276)"
assigned_category = "label 0"


Q: How was `CCCCCCCCCCCCCC[n+]1ccccc1` classified in this test?
Ans: label 0

Q: // return assay outcome for `C=CCOCC(CO)(CO)CO`
Ans: label 0

Q: Record lookup: outcome of this test for `Oc1cc2ccccc2cc1O` ?
Ans: label 0

Q: Recorded test outcome, item `Cc1[nH]nc2c1N=C(c1ccccc1Cl)c1cc([N+](=O)[O-])ccc1N2`
Ans: label 0

Q: Test call for this molecule, please: `NCCN`
Ans: label 0

Q: Hi, do you know how `FC(F)(F)C1(F)C(F)(F)C(F)(F)C(F)(F)C1(F)F` came out in this test?
Ans: label 0

Q: Hello, I am checking results. What call was entered for `CCOC(C)=O` ?
Ans: label 0

* * *

method_summary: ATG_PXRE_CIS: Attagene CIS-FACTORIAL HepG2 Assay for human Pregnane X Receptor Element (PXRE) (AID 2282957)
protocol_conditions: HepG2 Attagene CIS-FACTORIAL PXRE reporter, mRNA; actives raise or lower the signal
Calls of active or inactive are those of the source. The calls were made as follows: active = hit-call score of the fitted dose curve at least 0.9, where 1 is the maximum; inactive = score below 0.9.
Your reply should match one of these outcome classes. YES (active), NO (inactive)

Solved cases below.
[[record]]
compound = "FCOC(C(F)(F)F)C(F)(F)F"
assigned_category = "NO"

[[record]]
compound = "O=S(=O)(c1ccc(OCc2ccccc2)cc1)c1ccccc1O"
assigned_category = "YES"

[[record]]
compound = "OCC1CCC(CO)CC1 (configuration not stated)"
assigned_category = "NO"

[[record]]
compound = "Cc1cc(C(=C2C=CC(=Nc3ccc(S(=O)(=O)O)cc3)C=C2)c2ccc(Nc3ccc(S(=O)(=O)O)cc3)cc2)cc(S(=O)(=O)O)c1N"
assigned_category = "NO"

[[record]]
compound = "C=CC(C)(CCC=C(C)C)OC(C)=O (configuration not stated)"
assigned_category = "YES"

[[record]]
compound = "C[C@]12CC[C@@H]3c4ccc(O)cc4CC[C@H]3[C@@H]1C[C@@H](O)[C@@H]2O"
assigned_category = "NO"


Continue with the compound presented below.
Q: Hello, I am checking results. What call was entered for `C=CCOCC(CO)(CO)CO` ?
Ans: YES
